particulars: 298.15 K; 101.33 kPa; Liquid; Vibrating tube method
measurement-kind: mass density (kg/m3)
Answers are plain numbers, in kg/m3.

Consider the following illustrative entries.
molecule	unit-abbrev	mass density
CCOC(C)(C)CC [1,1-dimethylpropyl ethyl ether]	kg/m3	760.52
CCC(C)(C)O [2-methylbutan-2-ol]	kg/m3	805.29
CCC(C)O (centres undefined) [butan-2-ol]	kg/m3	802.71

(Q) For the molecule CCCCO [butan-1-ol] , what mass density is on record?
(A) 805.97

* * *

run-description: refractive index (Na D-line) (dimensionless)
particulars: 298.15 K; 101.33 kPa; Liquid; Standard Abbe refractometry
Numbers after ± are expanded uncertainties.
I'd appreciate it if you could supply refractive index values for the items below.

Consider the following illustrative entries.
molecule	refractive index
CCC(C)(C)O	1.40248 ± 0.00037
CCC(C)O (centres undefined)	1.3951 ± 0.0003
CCOC(C)(C)CC	1.38858 ± 0.00031

Next molecule, please.
(Q) For the molecule CCCCO , what refractive index is on record?
(A) 1.3972 ± 0.0003
